Test: Stability in human liver microsomes assessed as parent compound remaining at 5 uM measured up to 60 mins by UPLC-MS/MS analysis
Type: ADME, Microsome
Details: read-out: Stabilty
ENDPOINT: remaining at 1 h, 5 µM
Output should be the measured figure followed by the unit it is expressed in.

Asked: Which remaining at 1 h, 5 µM reading was recorded for the compound COc1cc2c(cc1O)CCC(C)(CC(=O)NCCCCCCCCNc1c3c(nc4cc(Cl)ccc14)CCCC3)O2 (stereo unspecified) ?
Given back: 3.6%

---

Assay: Stability in rat liver microsomes assessed as parent compound remaining at 5 uM measured up to 60 mins by UPLC-MS/MS analysis
Type: ADME, Microsome
Details: read-out: Stabilty
ENDPOINT: remaining at 1 h, 5 µM (%)
Numeric only. Scale: %

Asked: Which remaining at 1 h, 5 µM reading was recorded for the compound COc1cc2c(cc1O)CCC(C)(CC(=O)NCCCCCCCCNc1c3c(nc4cc(Cl)ccc14)CCCC3)O2 (stereo unspecified) ?
Given back: 36.5

---

Target: Beta-secretase 1 (Homo sapiens, UniProt P56817)
Sequence (P56817 whole entry): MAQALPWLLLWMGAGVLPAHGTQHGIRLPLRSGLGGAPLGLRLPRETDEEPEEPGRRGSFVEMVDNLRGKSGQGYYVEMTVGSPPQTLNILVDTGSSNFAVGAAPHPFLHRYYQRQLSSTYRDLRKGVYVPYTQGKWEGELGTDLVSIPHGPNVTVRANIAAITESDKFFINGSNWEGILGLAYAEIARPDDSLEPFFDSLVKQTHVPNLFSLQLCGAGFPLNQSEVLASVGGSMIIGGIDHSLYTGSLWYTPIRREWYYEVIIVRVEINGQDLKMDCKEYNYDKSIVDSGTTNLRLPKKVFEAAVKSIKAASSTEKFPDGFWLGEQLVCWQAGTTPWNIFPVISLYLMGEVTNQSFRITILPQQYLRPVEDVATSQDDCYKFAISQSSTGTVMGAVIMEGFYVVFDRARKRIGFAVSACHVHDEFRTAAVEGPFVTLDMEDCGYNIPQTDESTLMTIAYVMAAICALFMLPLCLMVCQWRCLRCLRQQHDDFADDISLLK
Experiment: Inhibition human BACE1 expressed in baculovirus expression system using Panvera peptide as substrate measured after 60 mins by fluorescence assay
Settings: read-out: IC50
ENDPOINT: pIC50
Field pIC50 (float): negative decimal logarithm of the concentration in molar.

Asked: Which pIC50 reading was recorded for the compound COc1cc2c(cc1OCc1ccccc1)CCC(C)(CC(=O)NCCCCCCNc1c3c(nc4cc(Cl)ccc14)CCCC3)O2 (centres undefined) ?
Given back: 4.74

Asked: Next record, please: COc1cc2c(cc1OCc1ccccc1)CCC(C)(CC(=O)NCCCCCCCCNc1c3c(nc4cc(Cl)ccc14)CCCC3)O2 (centres undefined)
Given back: 5.08

Asked: Next record, please: COc1cc2c(cc1OCc1ccccc1)CCC(C)(CC(=O)NCCCCCCCCCNc1c3c(nc4cc(Cl)ccc14)CCCC3)O2 (centres undefined)
Given back: 5.14

Asked: Next record, please: COc1cc2c(cc1OCc1ccccc1)CCC(C)(CC(=O)NCCCCCCCNc1c3c(nc4cc(Cl)ccc14)CCCC3)O2 (centres undefined)
Given back: 4.90

---

Target: Cholinesterase (Homo sapiens)
Assay: Potency index, ratio of tacrine IC50 to test compound IC50 for recombinant human BChE
ENDPOINT: Ratio IC50
No unit in the answer, only the number.

Asked: Which Ratio IC50 reading was recorded for the compound COc1cc2c(cc1O)CCC(C)(CCNCCCCCCCCNc1c3c(nc4cc(Cl)ccc14)CCCC3)O2 (configuration not stated) ?
Given back: 2

Asked: Next record, please: COc1cc2c(cc1O)CCC(C)(CC(=O)NCCCCCCCCNc1c3c(nc4ccccc14)CCCC3)O2 (configuration not stated)
Given back: 7

Asked: Next record, please: COc1cc2c(cc1O)CCC(C)(CC(=O)NCCCCCCCNc1c3c(nc4ccccc14)CCCC3)O2 (configuration not stated)
Given back: 7

Asked: Next record, please: COc1cc2c(cc1O)CCC(C)(CC(=O)NCCCCCCCCCNc1c3c(nc4ccccc14)CCCC3)O2 (configuration not stated)
Given back: 7

Asked: Next record, please: COc1cc2c(cc1O)CCC(C)(CCNCCCCCCCCCNc1c3c(nc4cc(Cl)ccc14)CCCC3)O2 (configuration not stated)
Given back: 2

Asked: Next record, please: COc1cc2c(cc1O)CCC(C)(CC(=O)NCCCCCCNc1c3c(nc4ccccc14)CCCC3)O2 (configuration not stated)
Given back: 7

Asked: Next record, please: COc1cc2c(cc1O)CCC(C)(CCNCCCCCCCNc1c3c(nc4cc(Cl)ccc14)CCCC3)O2 (configuration not stated)
Given back: 2

---

Molecular target: Cholinesterase (Homo sapiens, UniProt P06276)
Sequence (P06276 whole entry): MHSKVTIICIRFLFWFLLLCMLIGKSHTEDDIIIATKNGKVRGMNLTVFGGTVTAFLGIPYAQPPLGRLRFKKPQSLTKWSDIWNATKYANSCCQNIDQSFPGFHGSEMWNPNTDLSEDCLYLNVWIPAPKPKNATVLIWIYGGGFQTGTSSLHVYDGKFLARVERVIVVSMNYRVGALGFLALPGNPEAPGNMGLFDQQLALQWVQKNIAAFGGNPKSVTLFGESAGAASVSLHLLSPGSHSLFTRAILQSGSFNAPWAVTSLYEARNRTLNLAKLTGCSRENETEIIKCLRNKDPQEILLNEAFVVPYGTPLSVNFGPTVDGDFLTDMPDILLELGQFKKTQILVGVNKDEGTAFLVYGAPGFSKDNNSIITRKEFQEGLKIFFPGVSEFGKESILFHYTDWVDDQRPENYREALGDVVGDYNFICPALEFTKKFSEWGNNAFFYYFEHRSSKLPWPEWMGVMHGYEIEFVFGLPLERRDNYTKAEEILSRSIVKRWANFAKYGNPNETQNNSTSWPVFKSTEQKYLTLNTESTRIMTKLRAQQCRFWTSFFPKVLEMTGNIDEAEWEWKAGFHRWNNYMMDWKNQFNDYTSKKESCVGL
pIC50: −log10 of the molar value.
Label rule, in plain words: pIC50 of 8 and up is true (1), under 8 is false (0).

Asked: Record COc1cc2c(cc1O)CCC(C)(CCC(=O)NCCCCCCCNc1c3c(nc4cc(Cl)ccc14)CCCC3)O2 (centres undefined) ; criterion: pIC50 no lower than 8. Met?
Given back: false (0)

Asked: Next record, please: COc1cc2c(cc1OCc1ccccc1)CCC(C)(CC(=O)NCCCCCCCNc1c3c(nc4cc(Cl)ccc14)CCCC3)O2 (centres undefined)
Given back: false (0)

Asked: Next record, please: COc1cc2c(cc1O)CCC(C)(CC(=O)NCCCCCCCCCNc1c3c(nc4ccccc14)CCCC3)O2 (centres undefined)
Given back: true (1)

Asked: Next record, please: COc1cc2c(cc1O)CCC(C)(CCN)O2 (centres undefined)
Given back: false (0)

Asked: Next record, please: COc1cc2c(cc1O)CCC(C)(CCNCCCCCCCCCNc1c3c(nc4cc(Cl)ccc14)CCCC3)O2 (centres undefined)
Given back: false (0)

Asked: Next record, please: COc1cc2c(cc1O)CCC(C)(CCNCCCCCCCNc1c3c(nc4cc(Cl)ccc14)CCCC3)O2 (centres undefined)
Given back: false (0)

Asked: Next record, please: COc1cc2c(cc1O)CCC(C)(CC(=O)NCCCCCCCNc1c3c(nc4ccccc14)CCCC3)O2 (centres undefined)
Given back: true (1)

Asked: Next record, please: COc1cc2c(cc1O)CCC(C)(CCC(=O)NCCCCCCNc1c3c(nc4cc(Cl)ccc14)CCCC3)O2 (centres undefined)
Given back: false (0)

---

Molecular target: UniProtKB P56817
Assay: Inhibition human BACE1 expressed in baculovirus expression system at 5 uM using Panvera peptide as substrate measured after 60 mins by fluorescence assay relative to control
Conditions: 1 h
ENDPOINT: inhibition at 5 µM
Output should be the measured figure followed by the unit it is expressed in.

Asked: Which inhibition at 5 µM reading was recorded for the compound COc1cc2c(cc1O)CCC(C)(CC(=O)NCCCCCCCCNc1c3c(nc4cc(Cl)ccc14)CCCC3)O2 (stereo unspecified) ?
Given back: 19%

Asked: Next record, please: COc1cc2c(cc1O)CCC(C)(CCNCCOCCOCCNc1c3c(nc4cc(Cl)ccc14)CCCC3)O2 (stereo unspecified)
Given back: 19.9%

Asked: Next record, please: COc1cc2c(cc1O)CCC(C)(CCNCCCCCCCCNc1c3c(nc4cc(Cl)ccc14)CCCC3)O2 (stereo unspecified)
Given back: 24.8%

Asked: Next record, please: COc1cc2c(cc1O)CCC(C)(CC(=O)NCCCCCCCCCNc1c3c(nc4ccccc14)CCCC3)O2 (stereo unspecified)
Given back: 6.75%

Asked: Next record, please: COc1cc2c(cc1O)CCC(C)(CCC(=O)NCCCCCCCNc1c3c(nc4cc(Cl)ccc14)CCCC3)O2 (stereo unspecified)
Given back: 14%

Asked: Next record, please: COc1cc2c(cc1O)CCC(C)(CCNCCCCCCCCCNc1c3c(nc4cc(Cl)ccc14)CCCC3)O2 (stereo unspecified)
Given back: 28.1%

---

Molecular target: Acetylcholinesterase (Homo sapiens)
Sequence (P22303 whole entry): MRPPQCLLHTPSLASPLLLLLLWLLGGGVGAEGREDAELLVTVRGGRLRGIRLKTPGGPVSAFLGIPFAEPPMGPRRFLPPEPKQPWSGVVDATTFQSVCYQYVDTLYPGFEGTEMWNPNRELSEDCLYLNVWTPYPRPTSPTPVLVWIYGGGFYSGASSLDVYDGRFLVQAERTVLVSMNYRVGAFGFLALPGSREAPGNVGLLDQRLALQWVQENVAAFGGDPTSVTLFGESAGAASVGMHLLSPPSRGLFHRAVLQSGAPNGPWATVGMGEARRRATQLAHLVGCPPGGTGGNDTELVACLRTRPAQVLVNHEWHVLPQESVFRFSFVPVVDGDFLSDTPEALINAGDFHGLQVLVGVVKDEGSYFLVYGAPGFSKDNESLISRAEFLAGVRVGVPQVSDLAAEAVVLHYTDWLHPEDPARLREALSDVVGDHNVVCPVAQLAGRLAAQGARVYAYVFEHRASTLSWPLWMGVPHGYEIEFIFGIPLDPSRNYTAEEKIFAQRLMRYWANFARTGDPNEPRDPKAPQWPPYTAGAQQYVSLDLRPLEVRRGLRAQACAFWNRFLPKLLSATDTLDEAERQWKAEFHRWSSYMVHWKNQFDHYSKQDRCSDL
Assay: Potency index, ratio of tacrine IC50 to test compound IC50 for recombinant human AChE expressed in HEK293 cells
Assay type: cell-based
ENDPOINT: Ratio IC50

Asked: Which Ratio IC50 reading was recorded for the compound COc1cc2c(cc1O)CCC(C)(CC(=O)NCCCCCCNc1c3c(nc4ccccc14)CCCC3)O2 (centres undefined) ?
Given back: < 5

Asked: Next record, please: COc1cc2c(cc1O)CCC(C)(CC(=O)NCCCCCCCNc1c3c(nc4ccccc14)CCCC3)O2 (centres undefined)
Given back: < 5

Asked: Next record, please: COc1cc2c(cc1O)CCC(C)(CC(=O)NCCCCCCCCCNc1c3c(nc4ccccc14)CCCC3)O2 (centres undefined)
Given back: < 5

Asked: Next record, please: COc1cc2c(cc1O)CCC(C)(CC(=O)NCCCCCCCCNc1c3c(nc4ccccc14)CCCC3)O2 (centres undefined)
Given back: < 5

---

Assay: in vitro
Settings: PAMPA
Description: Permeability of compound in PBS/EtOH buffer (7:3) PAMPA-BBB assay
I'd appreciate it if you could supply Papp values for the items below.
Numeric only. Scale: ×10⁻⁶ cm/s

Asked: Which Papp reading was recorded for the compound COc1cc2c(cc1O)CCC(C)(CCC(=O)NCCCCCCNc1c3c(nc4cc(Cl)ccc14)CCCC3)O2 (stereo not drawn) ?
Given back: 7.8

Asked: Next record, please: COc1cc2c(cc1O)CCC(C)(CC(=O)NCCCCCCCCCNc1c3c(nc4cc(Cl)ccc14)CCCC3)O2 (stereo not drawn)
Given back: 8.2

Asked: Next record, please: COc1cc2c(cc1O)CCC(C)(CCNCCCCCCCCCNc1c3c(nc4cc(Cl)ccc14)CCCC3)O2 (stereo not drawn)
Given back: 10.1
